# Experimental System: T1, TNFR1 (Homo sapiens, UniProt P19438)
# T1 chain: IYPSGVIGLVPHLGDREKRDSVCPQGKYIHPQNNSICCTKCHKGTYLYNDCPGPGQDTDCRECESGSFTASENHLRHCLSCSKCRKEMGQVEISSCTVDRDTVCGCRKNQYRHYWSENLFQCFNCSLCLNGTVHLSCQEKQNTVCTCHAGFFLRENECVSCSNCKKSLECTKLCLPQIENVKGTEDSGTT
# Experiment Summary: yeast display SC50
Could you mark each record fulfilled if its apparent Kd (screen) falls strictly under 700 pM, and not fulfilled if it equals or exceeds it?

Observe how each entry below is paired with its result.
| Binder | Discrete Label |
| --- | --- |
| R8A (designed binder) MTLQELLAEEALRRAEAEAFRYALELLAEKFPEQKEYLLDLAEEIESQIRSLSGVDVEDVRKFLDKEWAWVKELLAEHPAELAEVEAARAARLAELRAEVEAKVAA | not fulfilled |
| K62I (designed binder) MTLQELLREEALRRAEAEAFRYALELLAEKFPEQKEYLLDLAEEIESQIRSLSGVDVEDVRIFLDKEWAWVKELLAEHPAELAEVEAARAARLAELRAEVEAKVAA | fulfilled |
| E25P (designed binder) MTLQELLREEALRRAEAEAFRYALPLLAEKFPEQKEYLLDLAEEIESQIRSLSGVDVEDVRKFLDKEWAWVKELLAEHPAELAEVEAARAARLAELRAEVEAKVAA | not fulfilled |
| A105Q (designed binder) MTLQELLREEALRRAEAEAFRYALELLAEKFPEQKEYLLDLAEEIESQIRSLSGVDVEDVRKFLDKEWAWVKELLAEHPAELAEVEAARAARLAELRAEVEAKVQA | fulfilled |
| A28M (designed binder) MTLQELLREEALRRAEAEAFRYALELLMEKFPEQKEYLLDLAEEIESQIRSLSGVDVEDVRKFLDKEWAWVKELLAEHPAELAEVEAARAARLAELRAEVEAKVAA | not fulfilled |

Hello, is apparent Kd (screen) of the following binder strictly smaller than 700 pM? S47E (designed binder) MTLQELLREEALRRAEAEAFRYALELLAEKFPEQKEYLLDLAEEIEEQIRSLSGVDVEDVRKFLDKEWAWVKELLAEHPAELAEVEAARAARLAELRAEVEAKVAA fulfilled

Moving on to the next binder: E25Y (designed binder) MTLQELLREEALRRAEAEAFRYALYLLAEKFPEQKEYLLDLAEEIESQIRSLSGVDVEDVRKFLDKEWAWVKELLAEHPAELAEVEAARAARLAELRAEVEAKVAA fulfilled

Let us now turn to W68S (designed binder) MTLQELLREEALRRAEAEAFRYALELLAEKFPEQKEYLLDLAEEIESQIRSLSGVDVEDVRKFLDKESAWVKELLAEHPAELAEVEAARAARLAELRAEVEAKVAA not fulfilled

Same question for L26V (designed binder) MTLQELLREEALRRAEAEAFRYALEVLAEKFPEQKEYLLDLAEEIESQIRSLSGVDVEDVRKFLDKEWAWVKELLAEHPAELAEVEAARAARLAELRAEVEAKVAA please. not fulfilled

What about this binder? E36Y (designed binder) MTLQELLREEALRRAEAEAFRYALELLAEKFPEQKYYLLDLAEEIESQIRSLSGVDVEDVRKFLDKEWAWVKELLAEHPAELAEVEAARAARLAELRAEVEAKVAA fulfilled

Try this binder next: E18K (designed binder) MTLQELLREEALRRAEAKAFRYALELLAEKFPEQKEYLLDLAEEIESQIRSLSGVDVEDVRKFLDKEWAWVKELLAEHPAELAEVEAARAARLAELRAEVEAKVAA fulfilled

Field entry: F63Y (designed binder) MTLQELLREEALRRAEAEAFRYALELLAEKFPEQKEYLLDLAEEIESQIRSLSGVDVEDVRKYLDKEWAWVKELLAEHPAELAEVEAARAARLAELRAEVEAKVAA not fulfilled

And then F20I (designed binder) MTLQELLREEALRRAEAEAIRYALELLAEKFPEQKEYLLDLAEEIESQIRSLSGVDVEDVRKFLDKEWAWVKELLAEHPAELAEVEAARAARLAELRAEVEAKVAA , what is it? not fulfilled

Quick one: K66H (designed binder) MTLQELLREEALRRAEAEAFRYALELLAEKFPEQKEYLLDLAEEIESQIRSLSGVDVEDVRKFLDHEWAWVKELLAEHPAELAEVEAARAARLAELRAEVEAKVAA not fulfilled

Now give it for M1W (designed binder) WTLQELLREEALRRAEAEAFRYALELLAEKFPEQKEYLLDLAEEIESQIRSLSGVDVEDVRKFLDKEWAWVKELLAEHPAELAEVEAARAARLAELRAEVEAKVAA too. fulfilled

What would you report for L82K (designed binder) MTLQELLREEALRRAEAEAFRYALELLAEKFPEQKEYLLDLAEEIESQIRSLSGVDVEDVRKFLDKEWAWVKELLAEHPAEKAEVEAARAARLAELRAEVEAKVAA ? not fulfilled
